target-under-test: porcine Na^+/K^+-ATPase (purified NKA from S. domesticus cerebral cortex)
test: Na+/K+ ATPase (NKA) inhibitory activity assay (inorganic phosphate released from ATP, absorbance at 700 nm)
condition-parameters: unadapted NKA from Sus domesticus; read-out: IC50 against porcine NKA
measured-parameter: IC50 (nM)
Quick note: give the figure in nM, leave out the unit.

{"compound": "C[C@H]1O[C@@H](O[C@H]2CC[C@@]3(C=O)[C@@H](CC[C@@H]4[C@@H]3CC[C@]3(C)[C@@H](C5=CC(=O)OC5)CC[C@]43O)C2)[C@H](O)[C@H](O)[C@@H]1O [Compound 9, gofruside]", "target-under-test": "porcine Na^+/K^+-ATPase (purified NKA from S. domesticus cerebral cortex)", "output-unit": "nM", "IC50": 96.5}

Switching to the query record.
// query Look up IC50 of CC1CC(O)C2(O)OC3CC4(C=O)C(CCC5C4CCC4(C)C(C6=CC(=O)OC6)C(O)CC54O)CC3OC2O1 (stereo not drawn) [Compound 10, 16α-hydroxycalotropin] and report it.
// result 3670
